Data provenance is ChEMBL document CHEMBL6134821.

measurement.target: Protein cereblon/Tyrosine-protein kinase BTK (Homo sapiens, UniProt Q06187+Q96SW2)
Sequence (Q06187 2-659 limits assumed): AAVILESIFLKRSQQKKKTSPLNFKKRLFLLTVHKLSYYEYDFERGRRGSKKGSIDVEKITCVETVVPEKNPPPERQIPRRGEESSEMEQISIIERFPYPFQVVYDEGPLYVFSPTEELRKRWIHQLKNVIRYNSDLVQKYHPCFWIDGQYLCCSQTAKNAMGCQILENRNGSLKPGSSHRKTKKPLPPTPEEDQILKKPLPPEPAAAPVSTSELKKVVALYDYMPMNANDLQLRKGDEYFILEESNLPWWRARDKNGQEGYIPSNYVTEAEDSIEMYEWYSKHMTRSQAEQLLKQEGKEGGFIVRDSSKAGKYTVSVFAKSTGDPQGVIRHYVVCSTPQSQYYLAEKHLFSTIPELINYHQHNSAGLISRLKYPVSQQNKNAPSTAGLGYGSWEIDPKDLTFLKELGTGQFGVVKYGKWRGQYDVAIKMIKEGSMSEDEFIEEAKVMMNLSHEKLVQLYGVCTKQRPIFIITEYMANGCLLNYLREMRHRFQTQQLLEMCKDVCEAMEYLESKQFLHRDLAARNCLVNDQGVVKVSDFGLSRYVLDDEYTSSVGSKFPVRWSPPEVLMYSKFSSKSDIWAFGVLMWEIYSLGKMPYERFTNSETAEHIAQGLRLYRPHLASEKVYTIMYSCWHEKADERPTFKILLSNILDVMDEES
Sequence (Q96SW2 whole entry partner): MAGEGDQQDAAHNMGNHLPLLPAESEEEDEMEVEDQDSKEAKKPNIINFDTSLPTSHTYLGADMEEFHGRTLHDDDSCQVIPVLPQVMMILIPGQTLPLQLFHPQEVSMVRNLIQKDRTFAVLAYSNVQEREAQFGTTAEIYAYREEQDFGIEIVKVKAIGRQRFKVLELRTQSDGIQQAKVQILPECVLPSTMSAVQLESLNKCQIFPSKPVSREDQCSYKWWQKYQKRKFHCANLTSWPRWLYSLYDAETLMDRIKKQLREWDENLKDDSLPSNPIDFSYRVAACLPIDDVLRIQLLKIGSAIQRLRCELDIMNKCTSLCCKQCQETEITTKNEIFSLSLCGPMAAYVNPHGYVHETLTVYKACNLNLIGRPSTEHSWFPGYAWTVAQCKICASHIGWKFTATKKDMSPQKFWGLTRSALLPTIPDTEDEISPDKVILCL
experimental.protocol: PROTAC activity at CRBN/BTK in human JeKo-1 cells assessed as BTK degradation at 10 nM incubated for 24 hrs by Western blot analysis relative to control
Type: cell-based
property: Activity

molecule="O=C1CCC(N2Cc3cc(N4CCC(CCN5CCC(CC(=O)N6CCC(Nc7ncnc8[nH]cc(C(=O)c9ccc(Oc%10ccccc%10)cc9Cl)c78)CC6)CC5)CC4)c(F)cc3C2=O)C(=O)N1 (centres undefined)" property=Activity recorded_measurement=80%
molecule="O=C1CCC(c2ccc(N3CCC(CCN4CCC(CC(=O)N[C@H]5CC[C@H](Nc6ncnc7[nH]cc(C(=O)c8ccc(Oc9ccccc9)cc8)c67)C5)CC4)CC3)cc2)C(=O)N1 (some centres undefined)" property=Activity recorded_measurement=78%
molecule="O=C1CCC(N2Cc3cc(N4CCC(CCN5CCC(CC(=O)N[C@H]6CC[C@H](Nc7ncnc8[nH]cc(C(=O)c9ccc(Oc%10ccccc%10)cc9Cl)c78)CC6)CC5)CC4)c(F)cc3C2=O)C(=O)N1 (some centres undefined)" property=Activity recorded_measurement=80%
molecule="O=C1CCC(NC(=O)c2ccc(N3CCC(CCN4CCC(CC(=O)N[C@H]5CC[C@@H](Nc6ncnc7[nH]cc(C(=O)c8ccc(Oc9ccccc9)cc8Cl)c67)CC5)CC4)CC3)cn2)C(=O)N1 (some centres undefined)" property=Activity recorded_measurement=4%
molecule="O=C1CCC(c2ccc(N3CCC(CCN4CCC(CC(=O)N[C@H]5CC[C@@H](Nc6ncnc7[nH]cc(C(=O)c8ccc(Oc9ccccc9)cc8Cl)c67)CC5)CC4)CC3)cc2)C(=O)N1 (some centres undefined)" property=Activity recorded_measurement=79%
molecule="O=C1CCC(n2ncc(N3CCC(CCN4CCC(CC(=O)N[C@H]5CC[C@@H](Nc6ncnc7[nH]cc(C(=O)c8ccc(Oc9ccccc9)cc8Cl)c67)CC5)CC4)CC3)c(Cl)c2=O)C(=O)N1 (some centres undefined)" property=Activity recorded_measurement=64%
molecule="O=C1CCC(N2Cc3cc(N4CCC(CCN5CCC(CC(=O)N6CCN(c7ncnc8[nH]cc(C(=O)c9ccc(Oc%10ccccc%10)cc9Cl)c78)CC6)CC5)CC4)c(F)cc3C2=O)C(=O)N1 (centres undefined)" property=Activity recorded_measurement=65%
molecule=Cc1ccc(C(=O)N2CCC(CCN3CCC(CC(=O)N[C@H]4CC[C@@H](Nc5ncnc6[nH]cc(C(=O)c7ccc(Oc8ccccc8)cc7Cl)c56)CC4)CC3)CC2)cc1N1CCC(=O)NC1=O property=Activity recorded_measurement=26%

Moving on to another molecule below.
Entry under test: O=C1CCC(N2Cc3cc(N4CCC(CCN5CCC(CC(=O)N[C@H]6CC[C@@H](Nc7ncnc8[nH]cc(C(=O)c9ccc(Oc%10ccccc%10)cc9)c78)CC6)CC5)CC4)c(F)cc3C2=O)C(=O)N1 (some centres undefined) . Its Activity was 87%
